- Tested on: THRa:RXRa (NR concentration 90 nM, RXRa partner concentration 90 nM)
- Procedure Details: PBM binding z-score (relative to random genomic background probes); higher = stronger binding; sequences stand for … in GC…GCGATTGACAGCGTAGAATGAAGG
Class membership depends on PBM binding z-score alone; the intervals are small value = under 1, mid value = from 1 up to 3, large value = 3 and over

sequence=TCATATAGGTAATACAGGTGAAAGTAGGCATCTA class_label="mid value"

**Q:** Which bin should I file AGAACGAGGGAACGCTGAGTTGATAGCAGAGTAG under?
**A:** small value

**Q:** Which bin should I file CGTCCAAGCTCAGAGAGGTCAGTGAATGCCGAGT under?
**A:** mid value

**Q:** Which bin should I file TCATAAAGGTAAAAGGTGAAAGTCGGTGTGGTAA under?
**A:** mid value

**Q:** Which bin should I file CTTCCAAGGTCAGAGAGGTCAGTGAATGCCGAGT under?
**A:** large value

**Q:** Which bin should I file ATACCAAGGTGATCGTGAGGTCGTTGGTACTAAC under?
**A:** large value

**Q:** Which bin should I file ATATATAGGTTAAGGGTCATTCAGGTTGGTTCGC under?
**A:** large value

**Q:** Which bin should I file TCGTGTAGGTTAGGGGCATTCAGAATGGCGTCGA under?
**A:** mid value

**Q:** Which bin should I file TCTAGTTGGTCAAAGTTCACACACTCGAAATGCG under?
**A:** mid value

**Q:** Which bin should I file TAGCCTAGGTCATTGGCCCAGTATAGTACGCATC under?
**A:** mid value

**Q:** Which bin should I file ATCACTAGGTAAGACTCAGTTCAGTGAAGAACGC under?
**A:** small value

**Q:** Which bin should I file TTACCAAGGTGAGCTGAGGTCGCTGATCCAACTC under?
**A:** large value

**Q:** Which bin should I file TCTTGTAGATCGAGCAGGTTAAGAAAGCCTGAGT under?
**A:** small value

**Q:** Which bin should I file GTACCAAGGTGAATAGGTCGTTGAGGAGTAGGCG under?
**A:** mid value

**Q:** Which bin should I file CGAACTATGTCATTGACAGGACAGTGAATAGTAA under?
**A:** small value

**Q:** Which bin should I file CATCCTAGGTCAGGGCCAGTATAGGAGGAACGTT under?
**A:** mid value

**Q:** Which bin should I file CCTATTAGTTGACCATAAGGGCAATCGAAGCTCG under?
**A:** mid value

**Q:** Which bin should I file ACAGACAGGTGAGTGAAGGTAACTCAGCTGGACG under?
**A:** mid value

**Q:** Which bin should I file AGAATGAGTTTATACGTAGATCAGGGAAGAAAGT under?
**A:** small value

**Q:** Which bin should I file GCTTGTAGATCAAGGTTAAGAAAGACTAAGCTAA under?
**A:** mid value

**Q:** Which bin should I file CCTAGTTGGGCAAGGTCACACACGCTATAGGTAC under?
**A:** large value

**Q:** Which bin should I file GGAACGAGGGCATTCGAGTGGATAGCATGGCGAT under?
**A:** mid value

**Q:** Which bin should I file TTACCATGGTGAAGGTCGTTGATCCCTCTGTAGA under?
**A:** small value

---

- Test system: PPARg:RXRa 90nM:30nM, anti-RXR (NR concentration 90 nM, RXRa partner concentration 30 nM)
- Procedure Details: PBM binding z-score (relative to random genomic background probes); higher = stronger binding; sequences stand for … in GC…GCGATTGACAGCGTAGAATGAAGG
Measured Metric: PBM binding z-score
Just the number.

sequence=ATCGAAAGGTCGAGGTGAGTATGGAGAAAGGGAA target_entity="PPARg:RXRa 90nM:30nM, anti-RXR (NR concentration 90 nM, RXRa partner concentration 30 nM)" measured_metric="PBM binding z-score" recorded_number=2.39
sequence=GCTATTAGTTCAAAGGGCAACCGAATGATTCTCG target_entity="PPARg:RXRa 90nM:30nM, anti-RXR (NR concentration 90 nM, RXRa partner concentration 30 nM)" measured_metric="PBM binding z-score" recorded_number=6.42
sequence=TCATATAGGTAAAAGGTGAACGTCGGTGTGGTAA target_entity="PPARg:RXRa 90nM:30nM, anti-RXR (NR concentration 90 nM, RXRa partner concentration 30 nM)" measured_metric="PBM binding z-score" recorded_number=9.46

# context switch: different sequence, same PBM binding z-score
Item: TCTGGTAGGTCAGTTGGTCAGCTAACGAGCTGCC | PBM binding z-score: 2.47

---

The sequences listed here are annotated with their PBM binding z-score.
- Test system: PPARg:RXRa 270nM:90nM, anti-RXR (NR concentration 270 nM, RXRa partner concentration 90 nM)
- Procedure Details: PBM binding z-score (relative to random genomic background probes); higher = stronger binding; sequences stand for … in GC…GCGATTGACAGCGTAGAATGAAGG
Just the number.

sequence=AGTCAAAGATCACTAGGTAACGTAAGATTCAGCT measured_metric="PBM binding z-score" recorded_number=2.95
sequence=CAAATTAGGTCACGAAAGGTCAAAGTCGAATGAC measured_metric="PBM binding z-score" recorded_number=8.6
sequence=GCTATTAGTTGAAGGGGCAACCGAATGATTCTCG measured_metric="PBM binding z-score" recorded_number=2.1
sequence=GGAACGAGGGCAAAGCTGATAGCATCTGTCGACG measured_metric="PBM binding z-score" recorded_number=1.78
sequence=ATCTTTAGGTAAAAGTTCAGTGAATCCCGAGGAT measured_metric="PBM binding z-score" recorded_number=7.35
sequence=CCTATCAGGCCAATCTGGGTCACTCAAGGCTTGA measured_metric="PBM binding z-score" recorded_number=2.47

Item: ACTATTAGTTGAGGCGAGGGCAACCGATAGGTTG | PBM binding z-score: 0.0046

Item: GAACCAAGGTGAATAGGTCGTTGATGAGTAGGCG | PBM binding z-score: 1.97

Item: GTACCGAGGTGAATAGGTCGTTGATGAGTAGGCG | PBM binding z-score: 2.13

Item: CAAACTAGGTCAAGGGTCAAAGTCGAGCCAACCA | PBM binding z-score: 10.9

Item: TCAGACAGGTGAATGTAACTCAGGTACGCAGTCG | PBM binding z-score: 1.72

Item: ATCTCTAGGTAAGCCTCAGTTCAGTGAAGAACGC | PBM binding z-score: 0.396

Item: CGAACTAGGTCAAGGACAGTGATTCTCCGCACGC | PBM binding z-score: 6.34

Item: AATACAGGGTCATCGTAGGCCATAGTACGCACAG | PBM binding z-score: 6.05

Item: CCTACAGGGCCATCAGGTCATTGATATCAACGTT | PBM binding z-score: 1.04

---

- System: PPARa:RXRa (NR concentration 270 nM, RXRa partner concentration 90 nM)
- Procedure Details: PBM binding z-score (relative to random genomic background probes); higher = stronger binding; sequences stand for … in GC…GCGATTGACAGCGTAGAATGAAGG
Measured Metric: PBM binding z-score
Just the number.

sequence=GCTCGCAGGACAAGGTCAGAGCTTTGTCCGTAGA recorded_number=2.19
sequence=AGAATGTGGTTAAGATCAGGGAAACAGAATACAT recorded_number=0.172
sequence=TCTATTAGTTGATTAGGTCAACCGAAACAGCGGA recorded_number=2.94
sequence=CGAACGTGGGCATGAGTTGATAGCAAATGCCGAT recorded_number=-1.82
sequence=TCATATAGGTAAAGGTGGAAGTCGAACGATATGA recorded_number=1.93
sequence=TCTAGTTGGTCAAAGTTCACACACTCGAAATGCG recorded_number=5.5
sequence=GGAACGAGGGCAGTCGAGTTGATAGCATGGCGAT recorded_number=0.405
sequence=GAGACTGGGGCATCAGCAGGTTACCATAACTTAA recorded_number=1.73

Item: TTACCCAGGTGAAAGGTCGTTGATGCACGCCTTG | PBM binding z-score: 5.24

Item: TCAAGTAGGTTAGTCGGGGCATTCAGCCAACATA | PBM binding z-score: 1.68

Item: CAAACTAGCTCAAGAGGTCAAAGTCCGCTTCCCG | PBM binding z-score: 5.04

Item: TCTATTTGGTCAAAGGTCACACACTCGAAATGCG | PBM binding z-score: 6.7

Item: CCTCGGAGGACTGAAGGTCAGAGCTGTCCGCTTT | PBM binding z-score: 1.46

Item: CAAACTAGGTCAAGAGGTCGAAGTCCGCTTCCCG | PBM binding z-score: 5.23

Item: TCTAGCAGGCCAGAGGCTCACTCAAGAGGTACGG | PBM binding z-score: -0.344

Item: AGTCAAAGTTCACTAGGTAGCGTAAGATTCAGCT | PBM binding z-score: 4.13
